Source of measurements: paper PMC9228089

- Target: GSK-3β (Homo sapiens, UniProt P49841)
- Sequence (P49841 whole entry): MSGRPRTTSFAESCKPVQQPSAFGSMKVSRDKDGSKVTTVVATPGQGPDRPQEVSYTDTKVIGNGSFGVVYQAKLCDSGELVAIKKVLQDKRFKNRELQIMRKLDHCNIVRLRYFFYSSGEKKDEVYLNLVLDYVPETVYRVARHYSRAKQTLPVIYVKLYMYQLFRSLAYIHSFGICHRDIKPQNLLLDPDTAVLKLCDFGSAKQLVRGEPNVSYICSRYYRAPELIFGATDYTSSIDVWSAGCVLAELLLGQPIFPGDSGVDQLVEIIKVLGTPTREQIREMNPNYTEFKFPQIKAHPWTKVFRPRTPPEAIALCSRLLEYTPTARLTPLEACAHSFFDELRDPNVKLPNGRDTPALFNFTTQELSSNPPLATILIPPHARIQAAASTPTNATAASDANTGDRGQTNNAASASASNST
- Method Description: GSK-3β inhibitory assay (Kinase-Glo luminescence)
- Condition Description: read-out: % of Inhibition at 50 µM, 50 µM, triplicate
Quantity Name: inhibition at 50 µM (%)

For orientation, consider the following solved cases.
Cc1ccc2c(c1)N=C(c1cc(C)cc(I)c1O)CC(c1ccc(N(C)C)cc1)S2 (stereo not shown): 60.7
Cc1ccc2c(c1)N=C(c1cc(C)cc(Br)c1O)CC(c1ccc(N(C)C)cc1)S2 (stereo not shown): 66.6
Cc1ccc2c(c1)N=C(c1cc(Br)cc(I)c1O)CC(c1ccc(N(C)C)cc1)S2 (stereo not shown): 61.9
Cc1ccc2c(c1)N=C(c1cc(I)cc(I)c1O)CC(c1ccc(N(C)C)cc1)S2 (stereo not shown): 62.4

I. Cc1ccc2c(c1)N=C(c1cc(Cl)cc(I)c1O)CC(c1ccc(N(C)C)cc1)S2 (stereo not shown)
II. Cc1ccc2c(c1)N=C(c1cc(Cl)cc(Br)c1O)CC(c1ccc(N(C)C)cc1)S2 (stereo not shown)
// query Recorded inhibition at 50 µM values differ for I and II ; which one is higher? Your choice should be expressed through its label.
// result II

---

- Test system: DU-145
- Method Description: MTT cytotoxicity assay, prostate cancer cell line
- Type: cell-based, human
- Condition Description: Homo sapiens, DU-145, 72 h
Recorded measurements of IC50, one per entry
Answer format: numeric, µM implied, no suffix.

Cc1ccc2c(c1)N=C(c1cc(C)cc(I)c1O)CC(c1ccc(N(C)C)cc1)S2 (stereo not shown): 41.3
Cc1ccc2c(c1)N=C(c1cc(Br)cc(I)c1O)CC(c1ccc(N(C)C)cc1)S2 (stereo not shown): 36.8
Cc1ccc2c(c1)N=C(c1cc(Cl)cc(Br)c1O)CC(c1ccc(N(C)C)cc1)S2 (stereo not shown): 24.6

Value of IC50 reported for the compound Cc1ccc2c(c1)N=C(c1cc(Cl)cc(I)c1O)CC(c1ccc(N(C)C)cc1)S2 (stereo not shown) is 36.2

---

- Tested on: DU-145
- Method Description: MTT cytotoxicity assay, prostate cancer cell line
- Assay type: cell-based, human
- Condition Description: Homo sapiens, DU-145, 72 h
Recorded measurements of IC50, one per entry
Answer format: numeric, µM implied, no suffix.

CN(Cc1cnc2nc(N)nc(N)c2n1)c1ccc(C(=O)N[C@@H](CCC(=O)O)C(=O)O)cc1 [Methotrexate, reference compound]: 22

Value of IC50 reported for the compound Cc1ccc2c(c1)N=C(c1cc(C)cc(Br)c1O)CC(c1ccc(N(C)C)cc1)S2 (stereo not shown) is 37.5

Value of IC50 reported for the compound Cc1ccc2c(c1)N=C(c1cc(Cl)cc(Cl)c1O)CC(c1ccc(N(C)C)cc1)S2 (stereo not shown) is 20.4

Value of IC50 reported for the compound Cc1ccc2c(c1)N=C(c1cc(I)cc(I)c1O)CC(c1ccc(N(C)C)cc1)S2 (stereo not shown) is 32.7

---

Recorded measurements of melting point, one per entry

For orientation, consider the following solved cases.
Cc1ccc2c(c1)N=C(c1cc(C)cc(Br)c1O)CC(c1ccc(N(C)C)cc1)S2 (stereo not shown): 244 to 246 °C
Cc1ccc2c(c1)N=C(c1cc(Cl)cc(I)c1O)CC(c1ccc(N(C)C)cc1)S2 (stereo not shown): 244 to 246 °C

Next, consider the following compound.
Value of melting point reported for the compound Cc1ccc2c(c1)N=C(c1cc(Cl)cc(Cl)c1O)CC(c1ccc(N(C)C)cc1)S2 (stereo not shown) is 222 to 224 °C
